Each entry below carries its reported protein stability index.
B1: ESR2 (parent)
chain: KSCQACRLRKCYEVGMVKCGSRRE

- Variants of: B1
- assayDetails: protein stability index of a GFP-peptide fusion (GPS, HEK-293T) (PSI 1-6); higher = more stable;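 also: lentivirally expressed fusions sorted by FACS into six bins by GFP to DsRed ratio, PSI derived from sequencing read proportions per bin multiplied by bin number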
- particulars: c terminus: a fixed tail appended
Just the number, please, no unit after it.

For orientation, consider the following solved cases.
**Query** Param item = V14P ; retrieve measured protein stability index.
**Result** 1.62

**Query** Likewise for Q4P ?
**Result** 1.68

**Query** Param item: G20Y
**Result** 2.15

**Query** Follow-up item: Y12I
**Result** 1

**Query** Repeat for the following variant: K1V
**Result** 2.31

**Query** Same again, this time with R23F
**Result** 2.51

**Query** Query Q4I next
**Result** 1.88

# next variant below
**Query** What does the record list as protein stability index for R23P ?
**Result** 2.2
